Tested on: p-eIF2α in HEK293T cells
Protocol Notes: p-eIF2α ICC and spectrophotometry in HEK293T cells
Assay type: cell-based, human
Condition Details: 2 h treatment
Readout: pIC50
Numbers only, as −log10 of the molar value.

The compound listed as OCCCN1CC[C@@H]2C[C@H]1c1cc(-c3ccc(C(F)(F)F)cc3)ccc12 shows pIC50 equal to 8.23

---

Subject Of Test: UniProt:P23975
Sequence (P23975 whole entry): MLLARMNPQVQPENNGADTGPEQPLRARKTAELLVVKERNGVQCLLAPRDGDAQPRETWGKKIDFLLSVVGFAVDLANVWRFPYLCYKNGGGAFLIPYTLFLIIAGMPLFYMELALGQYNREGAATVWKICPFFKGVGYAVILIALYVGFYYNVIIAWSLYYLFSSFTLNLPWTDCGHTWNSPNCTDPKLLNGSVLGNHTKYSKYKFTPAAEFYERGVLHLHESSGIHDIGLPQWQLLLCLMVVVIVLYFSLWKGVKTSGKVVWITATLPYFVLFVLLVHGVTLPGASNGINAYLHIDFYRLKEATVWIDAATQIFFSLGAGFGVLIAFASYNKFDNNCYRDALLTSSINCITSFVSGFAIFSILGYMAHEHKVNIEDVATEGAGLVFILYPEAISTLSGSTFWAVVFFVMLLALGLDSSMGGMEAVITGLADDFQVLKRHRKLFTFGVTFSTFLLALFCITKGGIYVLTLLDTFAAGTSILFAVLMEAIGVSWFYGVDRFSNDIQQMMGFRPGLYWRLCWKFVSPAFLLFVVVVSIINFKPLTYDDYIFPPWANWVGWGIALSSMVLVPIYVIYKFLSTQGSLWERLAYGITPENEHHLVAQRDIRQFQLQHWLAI
Protocol Notes: PDSP competitive binding assay
Condition Details: Ki, NET, Run 4
Readout: Ki (µM)
One number for each entry, in µM.

Looking up OCCCN1CC[C@@H]2C[C@H]1c1cc(-c3ccc(C(F)(F)F)cc3)ccc12 , I found its Ki recorded as 0.519
